Target: human α-Synuclein pre-formed fibrils (human, UniProt P37840 1-140)
Experiment: sandwich ELISA; PFF vs monomer from EC50s, Syn211 as control
# if measured PFF Preference < 0.6: TRUE  # else: FALSE

Query: Here's an entry: 9060 (antibody, IgG1, V domains shown) VH: EVHLVESGGGLVQPKGSLKLSCAASGFTFNTYAMHWVRQAPGKGLEWVARIRNKSNNYATYYADSVKDRFTISRDDSQSMLFLQMDNLKTEDTAIYYCVRGGLSPFDYWGQGTTLTVSS VL: QIVLTQSPAIMSASPGEKVTMTCSASSSVTYMHWYQQKSGTSPKRWIYDTSKLASGVPARFSGSGSGTSYSLTISSMEAEDAATYYCQQWSSNPPTFGGGTKLEIR . Is its PFF Preference below 0.6?
Reply: FALSE

Query: Report whether reported PFF Preference is lower than 0.6 (strictly) for 9003 (antibody, IgG1, V domains shown) VH: EVQLVESGGGLVQPKGSLKLSCAASGFTFNTYAMHWVRQAPGKGLEWVARIRSESNNFATYYADSVKDSFTISRDDSQSMLYLQMNNLKTEDTAVYYCVRGGLSPFDYWGQGTTLTVSS VL: QIVLTQSPAIMSASPGEKVTMTCSASSSVSYMHWYQQKSGTSPKRWIYDTSKLASGVPARFSGSGSGTSYSLTINSMEAEDAATYYCQQWSRNPPTFGGGTKLEIK
Reply: TRUE

Query: Consider the binder 9110 (antibody, IgG1, V domains shown) VH: EVHLVESGGGLVQPKGSLKLSCAASGFTFNTYAMHWVRQAPGKGLEWVARIRNKSNNYATYYADSVKDRFTISRDDSQSMLFLQMDNLKTEDTAIYYCVRGGLSPFDYWGQGTTLTVSS VL: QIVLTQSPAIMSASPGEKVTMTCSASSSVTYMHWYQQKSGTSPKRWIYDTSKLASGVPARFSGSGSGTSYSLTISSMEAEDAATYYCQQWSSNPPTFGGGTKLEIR . Is its PFF Preference strictly less than 0.6?
Reply: TRUE

Query: I wonder whether 9092 (antibody, IgG1, V domains shown) VH: QVQLQQSGPELVKPGASVRISCKASGYTFTTFYLHWVKQRPGQGLEWIGWIYPVNVKIKYSERFKGKATLTADKSSSTAYMQLGSLTSEDSAVYFCVRGGRGLDYWGQGTTLTVSS VL: NIMMTQSPSSLAVSAGEKVTMSCKSSQSVLYSSNQKNYLAWYQQKPGQSPKMLIYWASFRESGVPDRFTGSGSGTDFTLTISSVQAEDLAVYYCHQYLSLFTFGSGTKLEIK has PFF Preference below 0.6. Can you tell?
Reply: FALSE

Query: Identify whether the binder 9014 (antibody, IgG1, V domains shown) VH: EVQLVESGGGLVQPKGSLKLSCAASGFTFNTYAMHWVRQAPGKGLEWVARIRSESNNFATYYADSVKDSFTISRDDSQSMLYLQMNNLKTEDTAVYYCVRGGLSPFDYWGQGTTLTVSS VL: QIVLTQSPAIMSASPGEKVTMTCSASSSVSYMHWYQQKSGTSPKRWIYDTSKLASGVPARFSGSGSGTSYSLTINSMEAEDAATYYCQQWSRNPPTFGGGTKLEIK records PFF Preference below 0.6.
Reply: TRUE

Query: API: query returns whether the binder falls strictly under 0.6 in PFF Preference. Query: 9005 (antibody, IgG1, V domains shown) VH: EVMLVESGGGLVKSGGSLKLSCAASGFTFSSYAMSWVRQTPEKRLEWVATISTGGGYTYYPDSVKGRFTISRDNAKNTLYLQMSSLRSEDTAMYYCVRRGTARGYFDVWGAGTTVTVSS VL: QIVLTQSPAIMSASPGEKVTMTCSASSSVSYMYWYQQKPESSPRLLIYDTSNLASGVPVRFSGSGSGTSYFLTISRMEAEDAATYYCQQWKTYPPTFGGGTKLEIK
Reply: FALSE

Query: I'd appreciate it if you could check whether 9047 (antibody, IgG2b, V domains shown) VH: EVQLVESGGGLVKPGGSLKLSCGASGFTFSSFAMSWVRQTPEKRLEWVATISNGGSYTYYPDSVKGRFTISRDNAKNTLYLRMSSLRSEDTALYYCTRRSSTRGFFDYWGPGTTLTVSS VL: QIFLTQSPAIMSASPGEKVTMTCSASSSVTYMYWYQQNPGSSPRLLIYDSSKLASGVPVRFSGSGSGTSYSLTISRMEAEDATTYYCQQWKSYPPTFGTGTKLDLK has PFF Preference smaller than 0.6.
Reply: FALSE
